Tested on: NCI-H23 lung
Experiment Description: NCI-60 one-dose screen, 48 h (100 = growth as untreated, 0 = no growth, -100 = all killed)
Setup Conditions: 10 µM unless noted
The panel holds about 83,000 compounds, 20% with a hit somewhere; the sample as a whole holds those more often.
Okay, here is how we bin by growth: class 0 = under 60%, class 1 = from 60% up to 90%, class 2 = 90% and over

Previously resolved entries follow.
>  <Compound>
O=C1C(Cl)=C(Nc2ccc3c(c2NC2=C(Cl)C(=O)c4ccccc4C2=O)C(=O)c2ccccc2C3=O)C(=O)c2ccccc21

>  <Assigned Class>
class 0

$$$$
>  <Compound>
CCOC(=O)c1c(C)nc2c(c1N)/C(=C/c1cccs1)C(=O)N2Cc1ccccc1

>  <Assigned Class>
class 1

$$$$
>  <Compound>
O=C(O)c1cn(C2CC2)c2cc(N3CCN(Cc4nnc(Nc5ccccc5)o4)CC3)c(F)cc2c1=O

>  <Assigned Class>
class 2

$$$$

Now consider the entry below.
Data request: For this compound, which bin applies? Cc1nc2sc(C(=O)Nc3cccc(Cl)c3C)c(N)c2cc1C(C)O (centres undefined)
Data returned: class 0

###

Items are presented alongside their recorded growth.
System: NCI-H460 lung
Experiment Description: NCI-60 one-dose screen, 48 h (100 = growth as untreated, 0 = no growth, -100 = all killed)
Setup Conditions: 10 µM unless noted
This is part of a sample that, as a whole, favours compounds with a hit. Of some 83,000 tested, about 20% had one in any assay. Calls of active or inactive are those of the source. Rule for the calls: active = growth percent below 10; inactive = the rest.

Reference set, count: 4
>  <Compound>
CC(C)(C)c1nc2c(s1)c1nc(N)ncc1c1ccc(NS(=O)(=O)c3c(F)cccc3F)c(F)c12

>  <Assayed System>
NCI-H460 lung

>  <Reported Endpoint>
growth

>  <Experimental Value>
52.5% (inactive)

$$$$
>  <Compound>
CC(C)(C)c1ccc2oc(=O)n(SC(Cl)(Cl)Cl)c2c1

>  <Assayed System>
NCI-H460 lung

>  <Reported Endpoint>
growth

>  <Experimental Value>
96.6% (inactive)

$$$$
>  <Compound>
Nc1c(C(=O)Nc2ccccn2)sc2nc3c(cc12)CCCC3

>  <Assayed System>
NCI-H460 lung

>  <Reported Endpoint>
growth

>  <Experimental Value>
25.3% (inactive)

$$$$
>  <Compound>
C=C1C(=O)O[C@H]2[C@H]1CC/C(COC(=O)c1cccnc1N)=C\CC[C@@]1(C)O[C@@H]21

>  <Assayed System>
NCI-H460 lung

>  <Reported Endpoint>
growth

>  <Experimental Value>
5.22% (active)

$$$$

Now for a further compound.
Memo: "COC(=O)c1cncc(C(=O)Nc2ccc(-n3cnc4ccccc43)cc2)c1" , reported growth: 96.9% (inactive)

###

Test system: M14 melanoma
Experiment Description: NCI-60 one-dose screen, 48 h
Setup Conditions: 10 µM unless noted
About 83,000 compounds went through this panel and 20% of them were active in at least one assay; those are over-represented in the sample as a whole. Active and inactive are the calls of the source. The calls were made as follows: active = growth percent below 10; inactive = the rest.
One label from this list, please: yes (1) for active, no (0) for inactive

Previously resolved entries follow.
>  <Molecule>
COc1ccc(-c2cc(-c3nnc(SCC(=O)Nc4ccc(C(C)=O)cc4)o3)c3ccccc3n2)cc1

>  <Assigned Class>
yes (1)

$$$$
>  <Molecule>
c1ccc(-c2cn3ccnc3c(-c3ccc4c(c3)ncn4C3CCCCC3)n2)cc1

>  <Assigned Class>
no (0)

$$$$
>  <Molecule>
O=C1NC(SCc2ccc(F)cc2)=N/C1=C/c1cccc(OCc2ccc(Cl)cc2)c1

>  <Assigned Class>
no (0)

$$$$

Data request: Which outcome was assigned to "Cc1nc(C)c(C)nc1C" in this test?
Data returned: no (0)

Data request: Which outcome was assigned to "O=S(=O)(Nc1nccs1)c1ccc(Nc2nc(-c3ccncc3)cs2)cc1" in this test?
Data returned: no (0)

Data request: Which outcome was assigned to "O=[N+]([O-])c1cccc(CN(Cc2cccc([N+](=O)[O-])c2O)c2ccccc2)c1O" in this test?
Data returned: no (0)

Data request: Which outcome was assigned to "Nc1cc(N)c(S(=O)(=O)O)cc1N=Nc1cc([N+](=O)[O-])ccc1O" in this test?
Data returned: no (0)

Data request: Which outcome was assigned to CC1CCCN(CCCCCOc2ccc3oc4ccccc4c(=O)c3c2)C1 (centres undefined) in this test?
Data returned: yes (1)

Data request: Which outcome was assigned to "C=C(C)[C@@H]1CC[C@]2(C(N)=O)CC[C@]3(C)[C@H](CC[C@@H]4[C@@]5(C)CCCNC(C)(C)[C@@H]5CC[C@]43C)[C@@H]12" in this test?
Data returned: no (0)

###

Tested on: ACHN renal
Experiment Description: NCI-60 one-dose screen, 48 h
Setup Conditions: 10 µM unless noted
The panel holds about 83,000 compounds, 20% with a hit somewhere; the sample as a whole holds those more often. Activity calls are given as the source filed them. The calls were made as follows: active = growth percent below 10; inactive = the rest.
One label from this list, please: active, inactive

Previously resolved entries follow.
>  <Compound>
c1ccc2c3c([nH]c2c1)C(c1ccc(C2NCCc4c2[nH]c2ccccc42)cc1)NCC3 (stereo not given)

>  <Assayed System>
ACHN renal

>  <Assigned Class>
active

$$$$
>  <Compound>
CCC[S@@](=O)c1ccc2nc(NC(=O)OC)[nH]c2c1

>  <Assayed System>
ACHN renal

>  <Assigned Class>
inactive

$$$$
>  <Compound>
COC(=O)/C=C/c1cc(OC)c2c(c1)[C@@H](C(=O)OC)[C@H](c1ccc(OC)c(OC)c1)O2

>  <Assayed System>
ACHN renal

>  <Assigned Class>
inactive

$$$$

Data request: Which outcome was assigned to "O=C(CN1N=C(c2ccc(F)cc2)CCC1=O)Nc1nccs1" in this test?
Data returned: inactive

Data request: Which outcome was assigned to "O=C(/C(=C\c1c(-c2ccccc2)[nH]c2ccccc12)S(=O)(=O)c1ccccc1)c1ccccc1" in this test?
Data returned: inactive

Data request: Which outcome was assigned to "COc1ccc(C(=O)c2cc(OC)c(OC)c(OC)c2)cc1OC(=O)CCl" in this test?
Data returned: inactive

Data request: Which outcome was assigned to COc1cc2c(cc1OC)C(Sc1ccc(Cl)cc1)c1c(nc(N)c(C#N)c1N)O2 (stereo not given) in this test?
Data returned: active

Data request: Which outcome was assigned to "Cc1cccc(C)c1NCc1nnc(-c2ccc(O)cc2)o1" in this test?
Data returned: inactive

Data request: Which outcome was assigned to O=C1NN(c2ccccc2)C(c2ccc(Cl)cc2)N2CCC[C@H]12 (stereo not given in full) in this test?
Data returned: inactive

Data request: Which outcome was assigned to "COc1ccc(/C=C/C(=O)c2ccc(NC(=O)CSc3nnc(-c4ccc(OC)c(OC)c4)n3-c3ccccc3)cc2)cc1" in this test?
Data returned: inactive

###

System: HOP-62 NSCLC
Experiment Description: NCI-60 one-dose screen, 48 h (100 = growth as untreated, 0 = no growth, -100 = all killed)
Setup Conditions: 10 µM unless noted
This is part of a sample that, as a whole, favours compounds with a hit. Of some 83,000 tested, about 20% had one in any assay.
Decide by growth: equal to or exceeding 40% means Met, less means Not met.

>  <Compound>
Cc1cc(NC(=O)CNc2nc(Oc3ccc(F)cc3)nc(-c3ccc(F)cc3)n2)ccc1Cl

>  <Assigned Class>
Met

$$$$
>  <Compound>
CCC1S/C(=N\N=C(/C)c2ccc[nH]2)N(c2ccccc2)C1=O (stereo not given)

>  <Assigned Class>
Met

$$$$
>  <Compound>
COc1ccc2[nH]c3nc4cnccc4cc3c2c1

>  <Assigned Class>
Met

$$$$
>  <Compound>
COc1ccc(-c2cn(-c3ccc(Cl)cc3)c(=S)[nH]2)cc1OC

>  <Assigned Class>
Not met

$$$$
>  <Compound>
Nn1c(SCC(=O)Nc2ccc(Cl)cc2)nnc1-c1cc(F)c(Cl)cc1Cl

>  <Assigned Class>
Met

$$$$

Now consider the entry below.
Data request: Decide: is the reported value of growth for "C=C(C)[C@@H]1CC[C@]2(C(=O)OCCOCCOCC[P+](c3ccccc3)(c3ccccc3)c3ccccc3)CC[C@]3(C)[C@H](CC[C@@H]4[C@@]5(C)CC[C@H](OC(C)=O)C(C)(C)[C@@H]5CC[C@]43C)[C@@H]12" equal to or greater than 40%?
Data returned: Not met

###

Tested on: M14 melanoma
Experiment Description: NCI-60 one-dose screen, 48 h (100 = growth as untreated, 0 = no growth, -100 = all killed)
Setup Conditions: 10 µM unless noted
Compounds without any hit were thinned out: in the full panel of roughly 83,000, 20% have a hit.
Values of growth strictly less than 70% map to 1 (yes), and values of at least 70% map to 0 (no).

Previously resolved entries follow.
>  <Compound>
Cc1ccc(SC2c3ccc(C)cc3Oc3nc(N)c(C#N)c(N)c32)cc1 (stereo unspecified)

>  <Assigned Class>
0 (no)

$$$$
>  <Compound>
COc1ccc(-c2cn(-c3ccc(Cl)cc3)c(=S)[nH]2)cc1OC

>  <Assigned Class>
1 (yes)

$$$$
>  <Compound>
COc1ccc(N(C)c2nc(Cl)nc3ccn(C)c23)cc1

>  <Assigned Class>
1 (yes)

$$$$
>  <Compound>
C=C1C(=O)O[C@H]2[C@H]1CC/C(COC(=O)c1cc3ccccc3o1)=C\CC[C@@]1(C)O[C@@H]21

>  <Assigned Class>
1 (yes)

$$$$
>  <Compound>
CN(C)[C@@H]1C(=O)C(C(N)=O)=C(O)[C@@]2(O)C(=O)C3=C(O)c4c(O)cc(CN5CCc6ccccc6C5)c(Cl)c4C[C@H]3C[C@@H]12

>  <Assigned Class>
1 (yes)

$$$$

Data request: Report whether reported growth is lower than 70% (strictly) for CCCS(=O)(=O)Nc1ccc(F)c(C(=O)c2c[nH]c3ncc(-c4ccc(OCCCC5CCCCN5)nc4)cc23)c1F (stereo unspecified)
Data returned: 1 (yes)

Data request: Report whether reported growth is lower than 70% (strictly) for "C/C(=N/Nc1nc2ccccc2n1C)c1ccccn1"
Data returned: 1 (yes)

Data request: Report whether reported growth is lower than 70% (strictly) for "COc1ccc(Cl)c([N+](=O)[O-])c1"
Data returned: 0 (no)

Data request: Report whether reported growth is lower than 70% (strictly) for "COc1cc(/C=C/CO)cc(OC)c1O[C@@H]1O[C@H](CO)[C@@H](O)[C@H](O)[C@H]1O"
Data returned: 0 (no)

Data request: Report whether reported growth is lower than 70% (strictly) for "O=C(Nc1nccs1)c1noc2ccccc12"
Data returned: 0 (no)

Data request: Report whether reported growth is lower than 70% (strictly) for "C=C1C(=O)O[C@H]2[C@H]1CCC(/C=N/c1ncc(Br)cc1N)=C\CC[C@@]1(C)O[C@@H]21"
Data returned: 1 (yes)

Data request: Report whether reported growth is lower than 70% (strictly) for "COc1ccc(C(=O)c2cc(OC)c(OC)c(OC)c2)cc1OC(=O)CCl"
Data returned: 1 (yes)
